- TEST SYSTEM: Full-length (FL)-PRMT5-MEP50 enzyme complex (Homo sapiens (Human), UniProt O14744)
- Sequence (O14744 whole entry): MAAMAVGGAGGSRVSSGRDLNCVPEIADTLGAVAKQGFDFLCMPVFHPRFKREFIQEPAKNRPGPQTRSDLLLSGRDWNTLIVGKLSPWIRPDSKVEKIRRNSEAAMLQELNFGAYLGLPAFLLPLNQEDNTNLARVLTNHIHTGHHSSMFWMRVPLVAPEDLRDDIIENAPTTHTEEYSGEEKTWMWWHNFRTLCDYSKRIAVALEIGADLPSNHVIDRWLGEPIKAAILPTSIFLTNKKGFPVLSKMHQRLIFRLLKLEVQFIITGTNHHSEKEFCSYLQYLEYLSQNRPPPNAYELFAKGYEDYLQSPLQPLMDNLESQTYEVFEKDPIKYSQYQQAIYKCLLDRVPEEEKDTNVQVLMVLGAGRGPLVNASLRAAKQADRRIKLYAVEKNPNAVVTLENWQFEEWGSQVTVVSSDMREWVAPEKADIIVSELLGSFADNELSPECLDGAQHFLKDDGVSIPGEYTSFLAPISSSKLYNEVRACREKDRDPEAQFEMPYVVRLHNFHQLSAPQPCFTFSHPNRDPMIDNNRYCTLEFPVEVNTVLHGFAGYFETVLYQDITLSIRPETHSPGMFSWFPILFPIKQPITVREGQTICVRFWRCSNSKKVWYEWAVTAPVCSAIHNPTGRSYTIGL
- Sequence (Q9BQA1 whole entry partner): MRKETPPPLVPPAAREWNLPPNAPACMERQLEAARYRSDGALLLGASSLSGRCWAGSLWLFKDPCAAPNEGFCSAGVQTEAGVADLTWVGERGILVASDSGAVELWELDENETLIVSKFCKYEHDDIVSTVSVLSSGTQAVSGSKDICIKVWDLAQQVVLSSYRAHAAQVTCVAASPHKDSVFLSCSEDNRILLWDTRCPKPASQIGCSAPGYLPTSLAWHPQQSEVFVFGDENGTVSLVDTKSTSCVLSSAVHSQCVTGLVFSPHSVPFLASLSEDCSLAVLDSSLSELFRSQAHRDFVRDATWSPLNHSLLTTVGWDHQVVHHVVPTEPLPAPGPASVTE
- EXPERIMENTAL PROTOCOL: PRMT5-MEP50 Enzyme Methylation Assay (SAMDI)
- Assay type: biochemical
- PROTOCOL CONDITIONS: first EC50 of biphasic fit; 0.5 nM PRMT5-MEP50, 75 nM biotinylated H4R3(Me1) peptide, 15 μM SAM, 150 minutes at 37° C.; read-out: Enzyme Methylation Assay (EC50—1)
pEC50: −log10 of the molar value.
pEC50 vs 8: at or above is label 1, below is label 0.

A selection of reference data follows.
Is pEC50 for COc1ccc2c(c1)CN[C@H]([C@H](O)CNC(=O)c1cccnc1)C2 at or above 8?
label 0

Is pEC50 for COc1ccc2c(c1)CN[C@H]([C@H](O)CNC(=O)c1ccc(-c3ncc4n3CCCC4)cc1)C2 at or above 8?
label 1

Is pEC50 for CCOc1ncccc1C(=O)NC[C@@H](O)[C@@H]1Cc2ccc(OC)cc2CN1 at or above 8?
label 0

Further cases:
Is pEC50 for COc1ccc2c(c1)CN[C@H]([C@H](O)CNC(=O)c1cc(NC3COC3)ncn1)C2 at or above 8?
label 0

Is pEC50 for CCOc1cc(-c2nnc(C3CC3)o2)ccc1C(=O)NC[C@@H](O)[C@@H]1Cc2ccc(OC)cc2CN1 at or above 8?
label 1

Is pEC50 for CC(=O)N1CCC(Nc2cc(C(=O)NC[C@@H](O)[C@@H]3Cc4ccc(C#N)cc4CN3)ncn2)CC1 at or above 8?
label 0

Is pEC50 for COc1ccc2c(c1)CN[C@H]([C@H](O)CNC(=O)c1ccc(-c3ncnn3C3CC3)cc1)C2 at or above 8?
label 1

Is pEC50 for COc1ccc2c(c1)CN[C@H]([C@H](O)CNC(=O)c1ccc(-c3nnc(C(C)(C)C)o3)cc1)C2 at or above 8?
label 1

Is pEC50 for COC(=O)N1CCC(Nc2cc(C(=O)NC[C@@H](O)[C@@H]3Cc4ccc(OC)cc4CN3)ccn2)CC1 at or above 8?
label 1

Is pEC50 for CCOc1cc(-c2nnc(C)o2)ccc1C(=O)NC[C@@H](O)[C@@H]1Cc2ccc(OC)cc2CN1 at or above 8?
label 1

Is pEC50 for CC(=O)N1CCC(Nc2cc(C(=O)NC[C@@H](O)[C@@H]3Cc4ccc(C(F)(F)F)cc4CN3)ncn2)CC1 at or above 8?
label 0

* * *

- System: PRMT5 (symmetric dimethylation of arginine (SDMA) in MCF-7 cells)
- EXPERIMENTAL PROTOCOL: PRMT5 Cell Target Engagement (TE) Assay (SDMA, high content imaging)
- Assay type: cell-based
- PROTOCOL CONDITIONS: Homo sapiens, MCF7, 72 h, treated for 3 days, top compound concentration of 10000 nM
Note to self: use true (1) only for EC50 readings below 800 nM; a reading exactly at 800 nM still gets false (0).

A selection of reference data follows.
Identify whether the compound CCOc1ncccc1C(=O)NC[C@@H](O)[C@@H]1Cc2ccc(OC)cc2CN1 records EC50 below 800 nM.
false (0)

Identify whether the compound CC(=O)N1CCC(Nc2cc(C(=O)NC[C@@H](O)[C@@H]3Cc4ccc(C(F)(F)F)cc4CN3)ncn2)CC1 records EC50 below 800 nM.
false (0)

Identify whether the compound O=C(NC[C@@H](O)[C@@H]1Cc2ccc(C(F)F)cc2CN1)c1ccc(C(=O)N2C3CCC2COC3)cc1 records EC50 below 800 nM.
true (1)

Identify whether the compound COc1ccc2c(c1)CN[C@H]([C@H](O)CNC(=O)c1ccc(-c3ncnn3C3CC3)cc1)C2 records EC50 below 800 nM.
true (1)

Identify whether the compound COc1ccc2c(c1)CN[C@H]([C@H](O)CNC(=O)c1cccnc1)C2 records EC50 below 800 nM.
false (0)

Further cases:
Identify whether the compound COc1ccc2c(c1)CN[C@H]([C@H](O)CNC(=O)c1ccc(C(=O)N3C4CCC3COC4)cc1)C2 records EC50 below 800 nM.
true (1)

Identify whether the compound COc1ccc2c(c1)CN[C@H]([C@H](O)CNC(=O)c1ccccc1Cl)C2 records EC50 below 800 nM.
false (0)

Identify whether the compound CCOc1cc(C(=O)N2C3CCC2COC3)ccc1C(=O)NC[C@@H](O)[C@@H]1Cc2ccccc2CN1C [Example 3, 2,2,2-trifluoroacetate] records EC50 below 800 nM.
false (0)

Identify whether the compound COc1ccc2c(c1)CN[C@H]([C@H](O)CNC(=O)c1ccc(-c3ncc4n3CCCC4)cc1)C2 records EC50 below 800 nM.
true (1)

Identify whether the compound CCOc1cc(C(=O)N2C3CCC2COC3)ccc1C(=O)NC[C@@H](O)[C@@H]1Cc2ccc(OC)cc2CN1 records EC50 below 800 nM.
true (1)

Identify whether the compound CC(=O)N1CCC(Nc2cc(C(=O)NC[C@@H](O)[C@@H]3Cc4ccc(C#N)cc4CN3)ncn2)CC1 records EC50 below 800 nM.
false (0)

Identify whether the compound COc1ccc2c(c1)CN[C@H]([C@H](O)CNC(=O)c1ccc(-c3nnc(C(C)(C)C)o3)cc1)C2 records EC50 below 800 nM.
true (1)

Identify whether the compound CCOc1cc(-c2nnc(C3CC3)o2)ccc1C(=O)NC[C@@H](O)[C@@H]1Cc2ccc(OC)cc2CN1 records EC50 below 800 nM.
true (1)

Identify whether the compound COC(=O)N1CCC(Nc2cc(C(=O)NC[C@@H](O)[C@@H]3Cc4ccc(OC)cc4CN3)ccn2)CC1 records EC50 below 800 nM.
true (1)

Identify whether the compound CCOc1cc(-c2nnc(C)o2)ccc1C(=O)NC[C@@H](O)[C@@H]1Cc2ccc(OC)cc2CN1 records EC50 below 800 nM.
false (0)

Identify whether the compound CCc1ccc2c(c1)CN[C@H]([C@H](O)CNC(=O)c1cc(NC3CCN(C(C)=O)CC3)ncn1)C2 records EC50 below 800 nM.
false (0)

* * *

This listing pairs compounds with measured EC50.
- TEST SYSTEM: Full-length (FL)-PRMT5-MEP50 enzyme complex (Homo sapiens (Human), UniProt O14744)
- EXPERIMENTAL PROTOCOL: PRMT5-MEP50 Enzyme Methylation Assay (SAMDI)
- Format: biochemical
- PROTOCOL CONDITIONS: second EC50 of biphasic fit; 0.5 nM PRMT5-MEP50, 75 nM biotinylated H4R3(Me1) peptide, 15 μM SAM, 150 minutes at 37° C.; read-out: Enzyme Methylation Assay (EC50—2)
Answer with the number, then the unit.

Sample answers from the record:
Fill in: Full-length (FL)-PRMT5-MEP50 enzyme complex (Homo sapiens (Human), UniProt O14744) EC50 for COc1ccc2c(c1)CN[C@H]([C@H](O)CNC(=O)c1ccc(-c3nnc(C(C)(C)C)o3)cc1)C2 [Example 7] = 994 nM

Fill in: Full-length (FL)-PRMT5-MEP50 enzyme complex (Homo sapiens (Human), UniProt O14744) EC50 for COc1ccc2c(c1)CN[C@H]([C@H](O)CNC(=O)c1ccc(C(=O)N3C4CCC3COC4)cc1)C2 [Example 2] = 126 nM

Fill in: Full-length (FL)-PRMT5-MEP50 enzyme complex (Homo sapiens (Human), UniProt O14744) EC50 for O=C(NC[C@@H](O)[C@@H]1Cc2ccc(C(F)F)cc2CN1)c1ccc(C(=O)N2C3CCC2COC3)cc1 [Example 11] = 451 nM

Fill in: Full-length (FL)-PRMT5-MEP50 enzyme complex (Homo sapiens (Human), UniProt O14744) EC50 for COc1ccc2c(c1)CN[C@H]([C@H](O)CNC(=O)c1cccnc1)C2 [Example 12] = 11600 nM

Fill in: Full-length (FL)-PRMT5-MEP50 enzyme complex (Homo sapiens (Human), UniProt O14744) EC50 for CCc1ccc2c(c1)CN[C@H]([C@H](O)CNC(=O)c1cc(NC3CCN(C(C)=O)CC3)ncn1)C2 [Example 16] = 3700 nM

Further cases:
Fill in: Full-length (FL)-PRMT5-MEP50 enzyme complex (Homo sapiens (Human), UniProt O14744) EC50 for COc1ccc2c(c1)CN[C@H]([C@H](O)CNC(=O)c1ccc(-c3ncc4n3CCCC4)cc1)C2 [Example 8] = 225 nM

Fill in: Full-length (FL)-PRMT5-MEP50 enzyme complex (Homo sapiens (Human), UniProt O14744) EC50 for CCOc1ncccc1C(=O)NC[C@@H](O)[C@@H]1Cc2ccc(OC)cc2CN1 [Example 13] = 8080 nM

Fill in: Full-length (FL)-PRMT5-MEP50 enzyme complex (Homo sapiens (Human), UniProt O14744) EC50 for CCOc1cc(-c2nnc(C)o2)ccc1C(=O)NC[C@@H](O)[C@@H]1Cc2ccc(OC)cc2CN1 [Example 5] = 890 nM

Fill in: Full-length (FL)-PRMT5-MEP50 enzyme complex (Homo sapiens (Human), UniProt O14744) EC50 for COc1ccc2c(c1)CN[C@H]([C@H](O)CNC(=O)c1ccccc1Cl)C2 [Example 14] = 4280 nM

The values you see were collected from patent US10421743B2.
